# Test system: Colon cancer organoid
# Assay: Targeting of F14 CAF-induced therapy resistance in O23 CRC organoid-stroma co-culture. Cell viability is reported without Gefitinib.
# Format: functional, Homo sapiens
# Experimental Setup: Homo sapiens, Concentration 10 uM; read-out: Cell Viability

| Smiles Input | Target Or System | Measure Unit | viability at 10 µM |
| --- | --- | --- | --- |
| C[C@@H](NC(=O)Nc1cc2[nH]ncc2c(CO)n1)c1ccccc1 | Colon cancer organoid | % | 14.3 |
| O=C(CCCCCCNC(=O)c1cnc(N(c2ccccc2)c2ccccc2)nc1)NO | Colon cancer organoid | % | 108 |
| O=C1[C@H](Cc2ccc(O)cc2)N2C(=O)CCN(C(=O)NCc3ccccc3)[C@H]2CN1Cc1cccc2ccccc12 | Colon cancer organoid | % | 125 |
| Cc1cn(-c2cc(NC(=O)c3ccc4c(c3)CN(c3cncnc3)C[C@@H]4C)cc(C(F)(F)F)c2)cn1 | Colon cancer organoid | % | 115 |
| Clc1cc2c(NC3CCCC3)nnc(-c3ccncc3)c2cc1Cl | Colon cancer organoid | % | 142 |
